Would you mind telling me the reported M1-2 Log2 Median Normalized of each entry?
Test system: intracellular proteome of ENR+CD and ENR organoids
experimental.details: LC-MS/MS TMT proteomics of ENR+CD versus ENR organoids
Type: cell-based, C57BL/6 mice
assay.context: protein abundance ratio ENR+CD versus ENR organoids, sample pair M1-2; LC-MS/MS TMT proteomics
Answers are plain numbers.

Example cases with answers are listed next.
* Q8VE33 (protein, UniProt Q8VE33 1-370, looked up, full-length) MATPNNLTPTNCSWWPISALESDAAKPVETPDAPEASSPAHWPKESLVLYHWTQSFSSQKRLQVRLVIAEKGLACEERDVSLPQSEHKEPWFMRLNLGEEVPVIIHRDNIISDYDQIIDYVERTFTGEHVVALMPEAGSPQHARVLQYRELLDALPMDAYTHGCILHPELTTDSMIPKYATAEIRRHLANATTDLMKLDHEEEPQLSEPYLSKQKKLMAKILEHDDVSYLKKILGELAMVLDQIEAELEKRKLENEGQTCELWLCGCAFTLADVLLGATLHRLKFLGLSKKYWEDGSRPNLQSFFERVQRRFAFRKVLGDIHTTLLSAVIPNAFRLVKRKPPSFFGASFLMGSLGGMGYFAYWYLKKKYI | 0.932
* Q8K354 (protein, UniProt Q8K354 1-277, looked up, full-length) MSSCSRVALVTGANKGIGFAITRDLCRKFSGDVVLTARDEARGRAAVQQLQAEGLSPRFHQLDIDDPQSIRALRDFLRKEYGGLNVLVNNAGIAFRMDDPTPFDIQAEVTLKTNFFATRNVCTELLPIMKPHGRVVNISSLQGLKALENCREDLQEKFRCDTLTEVDLVDLMKKFVEDTKNEVHEREGWPDSAYGVSKLGVTVLTRILARQLDEKRKADRILLNACCPGWVKTDMARDQGSRTVEEGAETPVYLALLPPDATEPHGQLVRDKVVQTW | −1.435

Give M1-2 Log2 Median Normalized for each listed item.
1. Q9QXD6 (protein, UniProt Q9QXD6 1-338, looked up, full-length) MANHAPFETDISTLTRFVMEQGRKAQGTGELTQLLNSLCTAIKAISSAVRQAGIAQLYGIAGSTNVTGDQVKKLDILSNDLVINMLKSSYATCVLVSEENTNAIIIEPEKRGKYVVCFDPLDGSSNIDCLVSIGTIFGIYRKKSTDEPSEKDALQPGRDLVAAGYALYGSATMLVLAMDCGVNCFMLDPSIGEFIMVDRDVKMKKKGNIYSLNEGYAKDFDPAINEYLQRKKFPPDGSAPYGARYVGSMVADIHRTLVYGGIFLYPANKKSPSGKLRLLYECNPIAYVMEKAGGLATTGDKDILDIVPTEIHQKAPVVMGSSEDVQEFLEIYRKHKAK
2. Q80XU3 (protein, UniProt Q80XU3 1-234, looked up, full-length) MSRPVRNRKVVDYSQFQESDDADEDYGRDSGPPAKKIRSSPREAKNKRRSGKNSQEDSEDSEEKDVKTKKDDSHSAEDSEDEKDDHKNVRQQRQAASKAASKQREMLLEDVGSEEEPEEDDEAPFQEKDSGSDEDFLMEDDDDSDYGSSKKKNKKMVKKSKPERKEKKMPKPRLKATVTPSPVKGKAKVGRPTASKKSKEKTPSPKEEDEEAESPPEKKSGDEGSEDEASSGED
3. Q64669 (protein, UniProt Q64669 1-274, looked up, full-length) MAARRALIVLAHSEKTSFNYAMKEAAVEALKKRGWEVLESDLYAMNFNPIISRNDITGELKDSKNFQYPSESSLAYKEGRLSPDIVAEHKKLEAADLVIFQFPLQWFGVPAILKGWFERVLVAGFAYTYAAMYDNGPFQNKKTLLSITTGGSGSMYSLQGVHGDMNVILWPIQSGILRFCGFQVLEPQLVYSIGHTPPDARMQILEGWKKRLETVWEETPLYFAPSSLFDLNFQAGFLMKKEVQEEQKKNKFGLSVGHHLGKSIPADNQIKARK
4. Q8VEE1 (protein, UniProt Q8VEE1 1-365, looked up, full-length) MAKVAKDLNPGVQKMSLGQQQSARGVACLRCKGMCSGFEPHSWRKICKSCKCSQEEHCLSSDLDDDRKIGRLLMDSKYATLTARVKGGDGIRIYKRNRMIMTNPIATGKDPTFDTITYEWAPPGVTQKLGLQYMELIPKERQPVTGTEGALYRRRQLMHQLPIYDQDPSRCRGLVENELKAMEEFVKHYKSEALGVGEVALPGQGGLPKEENKTQEKPEGTETTAPTTNGSLGDPSKEVEYVCELCKGAAPVDSPVVYADRAGYSKQWHPTCFQCIKCSEPLVDLIYFWKDGAPWCGRHYCESVRPRCSGCDEIIFSEDYQRVEDLAWHRKHFICEGCEQLLSGRAYIVTKGQLLCPTCSKSKRS

Result:
1: −2.49; 2: −0.72; 3: −2.001; 4: −1.525

Give M1-2 Log2 Median Normalized for each listed item.
1. Q9CWY4 (protein, UniProt Q9CWY4 1-129, looked up, full-length) MQSPLTIPVPVPVLRLPRGPDGFSRGFASDGRRTILRPEVGEGHIQDPPESQEQRARATLRERYLRSLLAMVGHPVSFTLHEGVHVTAQFGATDLDVANFYVSQLQTPIGVQAEALLRCSDIISYSFKL
2. Q99LZ3 (protein, UniProt Q99LZ3 1-223, looked up, full-length) MTEVLDLHGQDSDGGSEEMVLTPAELIEKLEQAWMNEKFAPELLESKAEIVECVMEQLEHMEENLRRAKKGDLKVSIHRMEMERIRYVLSSYLRCRLMKIEKFFPHILEKEKVRSEGEPSSLSPEEFVFAKEYMDHTETHFKNVALKHMPPNLQKVDLLRAVPKPDLDSYVFLRVKERQENILVEPEADEQRDYVIDLEVGSQHLIRYKTIAPLVASGAVQLI

Result:
1. −0.855
2. −1.013

The measurements presented in this section are drawn from patent US11994512B2.
